# measurement_target: recombinant human Estrogen Receptor alpha ligand binding domain, residues 307-554 (ER alpha-LBD (GST)) (Homo sapiens)
# Sequence (P03372 307-554): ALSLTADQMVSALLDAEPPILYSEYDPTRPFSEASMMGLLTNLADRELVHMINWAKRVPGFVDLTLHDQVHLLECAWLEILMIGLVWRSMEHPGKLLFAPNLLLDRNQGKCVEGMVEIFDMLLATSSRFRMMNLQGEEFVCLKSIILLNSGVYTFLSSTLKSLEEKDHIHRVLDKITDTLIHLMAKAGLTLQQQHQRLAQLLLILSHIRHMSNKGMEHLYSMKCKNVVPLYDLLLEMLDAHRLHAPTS
# experimental_details: ERα binding assay (LanthaScreen TR-FRET competition)
# condition_details: TR-FRET competition with Fluormone ES2 tracer, 4 hours at room temperature; single experiment or average of two or more
value_type: log10(IC50) (log10 of the value in nM)
Quick note: numbers are log10 of IC50, with nM as the unit.

log10(IC50) measured on Cc1ncsc1-c1ccc(CNC(=O)[C@@H]2C[C@@H](O)CN2C(=O)[C@@H](NC(=O)c2ccc(CCCCCOc3cc(F)c([C@@H]4c5[nH]c6ccccc6c5C[C@@H](C)N4CC(C)(C)F)c(F)c3)cc2)C(C)(C)C)cc1 = 0.04

log10(IC50) measured on Cc1ncsc1-c1ccc(CNC(=O)[C@@H]2C[C@@H](O)CN2C(=O)[C@@H](NC(=O)COCCOCCOCCOCCOCCOCC(=O)Nc2ccc([C@@H]3c4[nH]c5ccccc5c4C[C@@H](C)N3CC(C)(C)F)cc2)C(C)(C)C)cc1 = 1.20

log10(IC50) measured on Cc1ncsc1-c1ccc(CNC(=O)[C@@H]2C[C@@H](O)CN2C(=O)[C@@H](NC(=O)COCCOCCOCCCCNC(=O)c2cc(F)c([C@@H]3c4[nH]c5ccccc5c4C[C@@H](C)N3CC(C)(C)F)c(F)c2)C(C)(C)C)cc1 = 0.04

log10(IC50) measured on Cc1ncsc1-c1ccc(CNC(=O)[C@@H]2C[C@@H](O)CN2C(=O)[C@@H](NC(=O)COCCC(C)(C)CCOc2cc(F)c([C@@H]3c4[nH]c5ccccc5c4C[C@@H](C)N3CC(C)(C)F)c(F)c2)C(C)(C)C)cc1 = 0.04

log10(IC50) measured on CC(=O)O[C@@H]1C[C@@H](C(=O)NCc2ccc(-c3scnc3C)cc2)N(C(=O)[C@@H](NC(=O)COCCOCCOCCOc2cc(F)c([C@@H]3c4[nH]c5ccccc5c4C[C@@H](C)N3CC(C)(C)F)c(F)c2)C(C)(C)C)C1 = -0.05

log10(IC50) measured on Cc1ncsc1-c1ccc(CNC(=O)[C@@H]2C[C@@H](O)CN2C(=O)[C@@H](NC(=O)COCCOCCCCCOc2cc(F)c([C@@H]3c4[nH]c5ccccc5c4C[C@@H](C)N3CC(F)(F)F)c(F)c2)C(C)(C)C)cc1 = -0.30

log10(IC50) measured on Cc1ncsc1-c1ccc(CNC(=O)[C@@H]2C[C@@H](O)CN2C(=O)[C@@H](NC(=O)COCC#CC#CCOc2cc(F)c([C@@H]3c4[nH]c5ccccc5c4C[C@@H](C)N3CC(C)(C)F)c(F)c2)C(C)(C)C)cc1 = 0.08

log10(IC50) measured on Cc1ncsc1-c1ccc(CNC(=O)[C@@H]2C[C@@H](O)CN2C(=O)[C@@H](NC(=O)COCc2cccc(CCCOc3cc(F)c([C@@H]4c5[nH]c6ccccc6c5C[C@@H](C)N4CC(C)(C)F)c(F)c3)c2)C(C)(C)C)cc1 = -0.10

log10(IC50) measured on Cc1ncsc1-c1ccc(CNC(=O)[C@@H]2C[C@@H](O)CN2C(=O)[C@@H](NC(=O)COCCOCCOCCOCC(=O)Nc2ccc([C@@H]3c4[nH]c5ccccc5c4C[C@@H](C)N3CC(C)(C)F)cc2)C(C)(C)C)cc1 = 1.08

log10(IC50) measured on Cc1ncsc1-c1ccc([C@@H](CN)NC(=O)[C@@H]2C[C@@H](O)CN2C(=O)[C@@H](NC(=O)COCCOCCOCCOc2cc(F)c([C@@H]3c4[nH]c5ccccc5c4C[C@@H](C)N3CC(C)(C)F)c(F)c2)C(C)(C)C)cc1 = -0.10

log10(IC50) measured on Cc1ncsc1-c1ccc(CNC(=O)[C@@H]2C[C@@H](O)CN2C(=O)[C@@H](NC(=O)CCCOc2cccc(COc3cc(F)c([C@@H]4c5[nH]c6ccccc6c5C[C@@H](C)N4CC(C)(C)F)c(F)c3)n2)C(C)(C)C)cc1 = 0.04

log10(IC50) measured on Cc1ncsc1-c1ccc([C@H](C)NC(=O)[C@@H]2C[C@@H](O)CN2C(=O)[C@@H](NC(=O)COCCCOCCCCOc2cc(F)c([C@@H]3c4[nH]c5ccccc5c4C[C@@H](C)N3CC(C)(C)F)c(F)c2)C(C)(C)C)cc1 = -0.52

log10(IC50) measured on Cc1ncsc1-c1ccc([C@H](C)NC(=O)[C@@H]2C[C@@H](O)CN2C(=O)[C@@H](NC(=O)CCOCCCCCCCOc2cc(F)c([C@@H]3c4[nH]c5ccccc5c4C[C@@H](C)N3CC(C)(C)F)c(F)c2)C(C)(C)C)cc1 = -0.05

log10(IC50) measured on Cc1ncsc1-c1ccc(CNC(=O)[C@@H]2C[C@@H](O)CN2C(=O)[C@@H](NC(=O)CCOCCCCOc2cc(F)c([C@@H]3c4[nH]c5ccccc5c4C[C@@H](C)N3CC(C)(C)F)c(F)c2)C(C)(C)C)cc1 = -0.22

log10(IC50) measured on Cc1ncsc1-c1ccc(CNC(=O)[C@@H]2C[C@@H](OC(=O)[C@@H]3CCCN3)CN2C(=O)[C@@H](NC(=O)CCCCCCCCCCOc2cc(F)c([C@@H]3c4[nH]c5ccccc5c4C[C@@H](C)N3CC(C)(C)F)c(F)c2)C(C)(C)C)cc1 = 0.95

log10(IC50) measured on Cc1ncsc1-c1ccc(CNC(=O)[C@@H]2C[C@@H](O)CN2C(=O)[C@@H](NC(=O)CCCN2CCN(CCCOc3cc(F)c([C@@H]4c5[nH]c6ccccc6c5C[C@@H](C)N4CC(C)(C)F)c(F)c3)CC2)C(C)(C)C)cc1 = -0.05

###

# measurement_target: Estrogen Receptor (ERα) in MCF-7 human ductal carcinoma breast cell line (Homo sapiens)
# Construct: endogenous in cells; host or cells: MCF-7
# Sequence (P03372 1-595): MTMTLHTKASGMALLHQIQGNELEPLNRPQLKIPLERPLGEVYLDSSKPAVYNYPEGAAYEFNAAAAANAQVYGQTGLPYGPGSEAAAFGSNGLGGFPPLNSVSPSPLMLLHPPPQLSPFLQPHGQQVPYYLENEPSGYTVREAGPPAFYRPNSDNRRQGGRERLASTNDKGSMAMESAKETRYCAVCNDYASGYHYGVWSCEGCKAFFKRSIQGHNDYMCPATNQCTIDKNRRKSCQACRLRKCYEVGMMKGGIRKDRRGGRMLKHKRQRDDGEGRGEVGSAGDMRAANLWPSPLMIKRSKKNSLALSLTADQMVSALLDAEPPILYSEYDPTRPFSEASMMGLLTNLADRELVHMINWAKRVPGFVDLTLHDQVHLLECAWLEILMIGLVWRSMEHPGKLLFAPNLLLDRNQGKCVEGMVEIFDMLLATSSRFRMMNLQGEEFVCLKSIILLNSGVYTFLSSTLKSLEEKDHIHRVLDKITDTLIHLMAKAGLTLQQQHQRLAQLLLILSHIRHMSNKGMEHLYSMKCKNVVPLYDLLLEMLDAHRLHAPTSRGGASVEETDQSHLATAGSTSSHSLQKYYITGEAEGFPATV
# experimental_details: MCF-7 ER degradation assay (cell based immuno-fluorescence)
# condition_details: MCF-7 cells, 0.3 μM; ER degradation by fulvestrant at 0.3 μM is defined as 100%
# Experimental: MCF-7 ER Degradation Assay The ability of compounds to down-regulate Estrogen Receptor (ER) numbers was assessed in a cell based immuno-fluorescence assay using the MCF-7 human ductal carcinoma breast cell line. […] Cells were syringed once using a sterile 18 G×1.5 inch (1.2×40 mm) broad gauge needle and cell density was measured using a Coulter Counter (Beckman). […]

compound | ER degradation ≥ 90% at 0.3 μM
Cc1ncsc1-c1ccc([C@H](C)NC(=O)[C@@H]2C[C@@H](O)CN2C(=O)[C@@H](NC(=O)COCCCOCCCOc2cc(F)c([C@@H]3c4[nH]c5ccccc5c4C[C@@H](C)N3CC(C)(C)F)c(F)c2)C(C)(C)C)cc1 [Example 152] | ••
Cc1ncsc1-c1ccc(CNC(=O)[C@@H]2C[C@@H](O)CN2C(=O)[C@@H](NC(=O)COCCCCCCOc2cc(F)c([C@@H]3c4[nH]c5ccccc5c4C[C@@H](C)N3CC(C)(C)F)c(F)c2)C(C)(C)C)cc1 [Example 51] | •
Cc1ncsc1-c1ccc(CNC(=O)[C@@H]2C[C@@H](O)CN2C(=O)[C@@H](NC(=O)COCCOCCCCCOc2cc(F)c([C@@H]3c4[nH]c5ccccc5c4C[C@@H](C)N3CC(C)(C)F)c(F)c2)C(C)(C)C)cc1 [Example 97] | ••
Cc1ncsc1-c1ccc(CNC(=O)[C@@H]2C[C@@H](O)CN2C(=O)[C@@H](NC(=O)COCCNC(=O)/C=C/c2cc(F)c([C@@H]3c4[nH]c5ccccc5c4C[C@@H](C)N3CC(C)(C)F)c(F)c2)C(C)(C)C)cc1 [Example 62, Trifluoroacetic Acid] | •
